Tested on: Cysteinyl leukotriene receptor 1 (Cavia porcellus)
Assay Details: Antagonist activity tested against Cysteinyl leukotriene D4 receptor
Readout Label: pKB

These solved cases illustrate the format of a correct answer.
c1ccc(CCCCn2nnc(-c3ccc(OCCCCc4nnn[nH]4)cc3)n2)cc1 : 5.8
Cc1ccccc1S(=O)(=O)NC(=O)CCCCn1nnc(-c2ccc(OCCCCc3ccccc3)cc2)n1 : 5.92
c1ccc(CCCCOc2ccc(-c3nn[nH]n3)cc2)cc1 : 5.92
CCCOc1ccc(-c2nnn(CCCCc3nnn[nH]3)n2)cc1 : 5.52
c1ccc(CCOc2ccc(-c3nnn(CCCCc4nnn[nH]4)n3)cc2)cc1 : 6.51

Recall and state the measured pKB for `O=C(O)c1ccc(Cn2nnc(-c3cccc(CSc4ccc5ccccc5n4)c3)n2)cc1` .
5.88

Recall and state the measured pKB for `FC(F)(F)CCCCOc1ccc(-c2nnn(CCCCc3nnn[nH]3)n2)cc1` .
5.92

Recall and state the measured pKB for `c1ccc(CCCCOc2ccc(-c3nnnn3CCCCc3nnn[nH]3)cc2)cc1` .
6.31

Recall and state the measured pKB for `c1ccc(CCCCOc2cccc(-c3nnn(CCCCc4nnn[nH]4)n3)c2)cc1` .
5.38

Recall and state the measured pKB for `c1cc(CSc2ccc3ccccc3n2)cc(-c2nnn(CCCCc3nnn[nH]3)n2)c1` .
6.57

Hello, the source for this data is ChEMBL document CHEMBL1125417, in case you need it.
